Measured On: natural β-amyloid peptide β-AP1-40 (human)
Sequence (peptide, as listed by the source): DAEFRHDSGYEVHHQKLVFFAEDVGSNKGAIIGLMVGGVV
Procedure Summary: cell-based or functional assay
* marks the point of attachment. Cholyl = C[C@H](CCC(=O)*)[C@H]1CC[C@H]2[C@@H]3[C@H](O)C[C@@H]4C[C@H](O)CC[C@]4(C)[C@H]3C[C@H](O)[C@]12C
Label scheme for % Iext'n; seeded extension assay; 25 mole %: lower than 10% is not satisfied, 10% and above is satisfied.

Binder | Label Value
H-KLVFF-OH [unmodified Aβ16-20] | not satisfied
Cholyl-Phe-Phe-Val-OH (SMILES CC(C)[C@H](NC(=O)[C@H](Cc1ccccc1)NC(=O)[C@H](Cc1ccccc1)NC(=O)CC[C@@H](C)[C@H]1CC[C@H]2[C@@H]3[C@H](O)C[C@@H]4C[C@H](O)CC[C@]4(C)[C@H]3C[C@H](O)[C@]12C)C(=O)O) [CA-FFV-oh] | not satisfied
Cholyl-KLVFF-OH [cholyl-Aβ16-20] | satisfied

Let's switch to this binder now.
Input line: Given Cholyl-KLVAF-OH (SMILES CC(C)C[C@H](NC(=O)[C@H](CCCCN)NC(=O)CC[C@@H](C)[C@H]1CC[C@H]2[C@@H]3[C@H](O)C[C@@H]4C[C@H](O)CC[C@]4(C)[C@H]3C[C@H](O)[C@]12C)C(=O)N[C@H](C(=O)N[C@@H](C)C(=O)N[C@@H](Cc1ccccc1)C(=O)O)C(C)C) [cholyl-Aβ16-20 (Phe19->Ala)] , state whether its % Iext'n; seeded extension assay; 25 mole % is at least 10%.
Output line: satisfied
